I'd appreciate it if you could supply TGI values for the items below.
test system: NCI-H460 lung; assay: NCI tumour cell line growth inhibition, 48 h

Here is how some compounds turned out for TGI.
CC1C=C(CCCCCCCCCCCC[C@@H](O)[C@@H]2CC[C@@H]([C@@H]3CC[C@@H](C(O)CCCCCCCCCCCCC4=C[C@H](C)OC4=O)O3)O2)C(=O)O1 (stereo not given in full) | > 100 µM
C#Cc1ccc(-n2c(/C=C/c3ccc(C(F)(F)F)cc3)nc3ncccc3c2=O)cc1 | 4.13 µM
C[C@]12CC[C@H](O)CC1=CC[C@@H]1C2CC[C@]2(C)C(=O)N(N)C(=O)CC12 (stereo not given in full) | > 100 µM
O=C(O)c1cccc2c1/C(=N/Nc1ccccc1)CC2 | > 100 µM

I have 5 compounds here; please give me TGI for each one.
1. CCCCCCCCCCCOc1ccc(C(=O)C(=O)c2ccc(OCCCCCCCCCCC)c(OCCCCCCCCCCC)c2)cc1OCCCCCCCCCCC
2. COc1cc2c(cc1OC)C(c1ccccc1CCCCl)=NCC2
3. COc1cc(CNc2cnc3cc(N)cc(N)c3n2)cc(OC)c1
4. O=C1CCC23CC(C=CC=C12)n1c(=O)n(-c2ccccc2)c(=O)n13 (stereo not given)
5. CC(C)/C(Cl)=N\OC(=O)Nc1ccc(S(N)(=O)=O)cc1

["> 100 µM", "> 100 µM", "> 100 µM", "> 100 µM", "41.6 µM"]

Request the reported TGI associated with CN(C)C(=N)c1ccccc1
> 100 µM

* * *

I'd appreciate it if you could supply TGI values for the items below.
system: OVCAR-8 ovarian; test: NCI tumour cell line growth inhibition, 48 h

Here is how some molecules turned out for TGI.
Cc1coc2c1CC1(C)C(CCC(O)C1C)C2 (stereo not given) | > 100 µM
Cc1ccc(C(=O)/C(=C/c2ccc([N+](=O)[O-])cc2)SCc2ccc(Cl)cc2)cc1 | 5.64 µM
Cc1cc(C)nc(NS(=O)(=O)c2ccc(NC(=O)c3ccc(Cl)c4c(Nc5ccc(S(=O)(=O)Nc6nc(C)cc(C)n6)cc5)c5ccccc5nc34)cc2)n1 | > 100 µM
Cc1cc(O)c2c(=O)c3ccccc3[nH]c2c1 | 70.2 µM
O=C(Nc1ccccc1)NS(=O)(=O)c1ccc(-n2nc3c(c2-c2cccs2)Cc2ccccc2-3)cc1 | > 100 µM

I have 4 molecules here; please give me TGI for each one.
1. CC(N)Cc1ccc(C(=O)Cl)cc1 (stereo not given)
2. COC(=O)[C@H](Cc1c[nH]c2ccccc12)NP(=O)(O)OCC1C=CC(n2cc(C)c(=O)[nH]c2=O)O1 (stereo not given in full)
3. COC1=CC(c2ccc[nH]2)=N/C1=C\c1[nH]c(C)c(C(=O)OC(C)C)c1C
4. COc1ccc(-c2nc3sccn3c2/C(N)=N/C(=N)N)cc1OC

> 100 µM
> 100 µM
1.04 µM
> 100 µM

Request the reported TGI associated with CC1(C)N=C(/C(Cl)=[N+](/[O-])C(=O)c2ccc(F)cc2)C(C)(C)N1O
33.9 µM

* * *

tested on: EKVX NSCLC; test: NCI tumour cell line growth inhibition, 48 h
ATTRIBUTE_MEASURED: TGI

Here is how some compounds turned out for TGI.
O=c1[nH]cc(N=Cc2cc(Cl)cc(Cl)c2O)c(=O)[nH]1 | > 100 µM
CC(=O)NNc1nc(C)c(C(=O)NNC(=O)C(=O)Nc2ccc(Cl)cc2)s1 | > 100 µM
COc1cc(/C=C2\S/C(=N/Nc3nc(-c4ccc(Br)cc4)cs3)NC2=O)cc(OC)c1OC | 63.8 µM
CC12CCC(O)CC1CCC1C2CCC2(C)C(C3=CC(=O)OC3)CCC12O (centres undefined) | 5.88 µM

I have 3 compounds here; please give me TGI for each one.
1. COC(=O)[C@H]1CO[C@@H](C(C)(C)C)N1C(=O)N1C=CC(=O)C[C@@H]1C
2. NC(=O)C(c1ccccc1)N1OC2C(=O)N(c3ccccc3)C(=O)C2C1c1c2ccccc2c(Cl)c2ccccc12 (centres undefined)
3. COc1ccc(C(=O)Cn2c(C(=O)c3ccccc3)nc(-c3ccc(OC)cc3)c2-c2ccc(OC)cc2)cc1

1: > 100 µM; 2: > 100 µM; 3: > 100 µM

I have 2 compounds here; please give me TGI for each one.
1. COC(=O)[C@H](Cc1c[nH]c2ccccc12)NP(=O)(O)OCC1C=CC(n2cc(C)c(=O)[nH]c2=O)O1 (some centres undefined)
2. CCOC(=O)N1CCC2(CC1)C[C@](C)(C(C)=O)C(C)O2 (some centres undefined)

1. > 100 µM
2. > 100 µM

* * *

test system: NCI-H23 lung; test: NCI tumour cell line growth inhibition, 48 h; in the data active = GI50 below about 0.43 µM; inactive = the rest
Entry note: the call must match one of active, inactive

CCCNC1=C2CC(C)CC(OC)[C@@H](O)[C@H](C)/C=C(\C)C(OC(N)=O)C(OC)/C=C\C=C(/C)C(=O)NC(=CC1=O)C2=O (some centres undefined) | active

For this compound, state the assay outcome: COC1=CC(c2ccc[nH]2)=N/C1=C\c1[nH]c(C)c(C(=O)OC(C)C)c1C
active

For this compound, state the assay outcome: COc1cc(Cc2cnc(/N=C3\C(=O)N(CN4CCN(c5c(F)cc6c(=O)c(C(=O)O)cn(C7CC7)c6c5OC)CC4C)c4ccc(F)cc43)nc2N)cc(OC)c1OC (centres undefined)
inactive

For this compound, state the assay outcome: NC(Cc1c[nH]c2c(O)cccc12)C(=O)O (centres undefined)
inactive

* * *

system: TK-10 renal; experiment: NCI tumour cell line growth inhibition, 48 h
I'd appreciate it if you could supply TGI values for the items below.

Here is how some compounds turned out for TGI.
O=[N+]([O-])/C(C(Cl)=C(Cl)Cl)=C(\SCc1ccccc1)N1CCCCC1 | > 100 µM
COc1c(C)c(C/C=C(\C)CCCCO[Si](c2ccccc2)(c2ccccc2)C(C)(C)C)c(OC)c(OC)c1OC | > 31.6 µM
Cc1coc2c1CC1(C)C(CCC(O)C1C)C2 (stereo not drawn) | > 100 µM
CCOC(=O)c1c2ccccc2n2c(N)c(C(N)=O)nnc12 | 40.5 µM
CC12CCC(O)CC1CCC1C2CCC2(C)C(C3=CC(=O)OC3)CCC12O (stereo not drawn) | > 35.4 µM

I have 2 compounds here; please give me TGI for each one.
1. CC(C)c1ccc(/C=C2/C=C(c3ccc4ccccc4c3)OC2=O)cc1
2. C=C(C1=CC(=O)C(C)(C)O1)[C@@H]1CC=C([C@@H]2CC[C@H]3[C@@]2(C)CC[C@H]2C(C)(C)C(=O)[C@H](O)C[C@]32C)[C@H](O)O1

1: > 100 µM; 2: 2.64 µM

I have 7 compounds here; please give me TGI for each one.
1. CO[C@H](C(=O)[C@@H](O)[C@@H](C)O)[C@@H]1Cc2cc3cc(O[C@H]4C[C@@H](O[C@H]5C[C@@H](O)[C@H](O)C(C)O5)[C@H](O)C(C)O4)c(C)c(O)c3c(O)c2C(=O)[C@H]1O[C@H]1C[C@@H](O[C@H]2C[C@@H](O[C@H]3C[C@](C)(O)C(=O)C(C)O3)[C@@H](O)C(C)O2)[C@H](O)C(C)O1 (stereo partly drawn)
2. COC(=O)C1CCC(=O)N1C(c1ccccc1)c1ccc(OC)c(OC)c1 (stereo not drawn)
3. CC(=O)Nc1ccc(-c2nnc(SCC(=O)Nc3ccc([N+](=O)[O-])cc3)o2)cc1
4. COc1cc(-c2nn(-c3ccc(NC(=O)c4ccc(Cl)c(C(F)(F)F)c4)cc3)cc2-c2ccncc2)ccc1Cl
5. COc1ccc(-c2nc3sccn3c2/C(N)=N/C(=N)N)cc1OC
6. CCN(CCO)CC1CCCC2CCCCC21 (stereo not drawn)
7. CC/C=C\CCC/C=C1/C(=O)C=C[C@@H]1C/C=C\CCCC(=O)OC

["> 11.8 µM", "> 100 µM", "27.9 µM", "> 100 µM", "> 100 µM", "> 100 µM", "20.1 µM"]

I have 8 compounds here; please give me TGI for each one.
1. CC(=O)O[C@H]1C(=O)[C@]2(C)[C@@H](OC(=O)OCCC(O)CO)C[C@H]3OC[C@@]3(OC(C)=O)[C@H]2[C@H](OC(=O)c2ccccc2)[C@]2(O)C[C@H](OC(=O)[C@H](O)[C@@H](NC(=O)c3ccccc3)c3ccccc3)C(C)=C1C2(C)C (stereo partly drawn)
2. COc1cc(/C=N/NC(=O)c2ccc(C(F)(F)F)nc2Nc2ccc(Cl)cc2C)ccc1O
3. O=CN/C=C/c1cc(O)ccc1O
4. CCOC(=O)C1=C(C)NC(=S)NC1c1ccccc1 (stereo not drawn)
5. COC1=CC(c2ccc[nH]2)=N/C1=C\c1[nH]c(C)c(C(=O)OC(C)C)c1C
6. COc1cc2c(cc1OC)C(c1ccccc1CCCCl)=NCC2
7. Cc1cc(C)nc(NS(=O)(=O)c2ccc(NC(=O)c3ccc(Cl)c4c(Nc5ccc(S(=O)(=O)Nc6nc(C)cc(C)n6)cc5)c5ccccc5nc34)cc2)n1
8. CCc1ccc(CCN2CCCCC2)nc1

1. > 61.2 µM
2. 17.3 µM
3. 31.6 µM
4. > 100 µM
5. 2.49 µM
6. > 100 µM
7. 83.1 µM
8. > 100 µM

I have 5 compounds here; please give me TGI for each one.
1. NC(=O)c1cccc2cn(-c3ccc([C@@H]4CCCNC4)cc3)nc12
2. CCOC(=O)CN1C(=O)c2cccc3cc([N+](=O)[O-])cc(c23)C1=O
3. Brc1ccc(N=c2nc3ccccn3n3nc(-c4ccccc4)cc23)cc1
4. O=C(/C=C/C12c3ccccc3C(c3ccccc31)C1C(=O)NC(=O)C12)c1ccncc1 (stereo not drawn)
5. O=C1C2C(C(=O)N1OS(=O)(=O)c1ccccc1)N(Cc1ccccc1)C(=O)N2Cc1ccccc1 (stereo not drawn)

1. 63.2 µM
2. 30.7 µM
3. 95.4 µM
4. 7.75 µM
5. > 100 µM
